Entry source: PubChem BioAssay AID889

- subject-of-test: Caspase-7 (Homo sapiens) (UniProt P55210)
- Sequence (P55210 24-198 limits assumed): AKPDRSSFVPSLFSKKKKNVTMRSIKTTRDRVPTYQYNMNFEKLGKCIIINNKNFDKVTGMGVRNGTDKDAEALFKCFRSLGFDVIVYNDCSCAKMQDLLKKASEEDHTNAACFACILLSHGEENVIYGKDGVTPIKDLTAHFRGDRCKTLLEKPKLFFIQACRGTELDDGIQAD
- Sequence (P55210 207-303 limits assumed): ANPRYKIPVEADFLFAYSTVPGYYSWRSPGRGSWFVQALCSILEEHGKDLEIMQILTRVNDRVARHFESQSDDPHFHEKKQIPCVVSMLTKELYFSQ
- procedure-text: qHTS Assay for Allosteric/Competitive Inhibitors of Caspase-7; further: % of control where 0% means no effect
- experimental-conditions: recombinant caspase-7, Ac-DEVD-AFC fluorescence rate; series mostly up to 57.5 µM
Out of some 75,000 compounds screened, about 15 (0.02%) were called active. Not shown: some 3% with an inconclusive outcome. Shown is part of a subset that was picked to be rich in actives.
readout-type: activity change, negative = inhibition

| compound | activity change, negative = inhibition |
| --- | --- |
| C/C=C(/C)C(=O)OC1Cc2c(ccc3ccc(=O)oc23)OC1(C)C (stereo not given) | inactive |
| C=C1C(=O)C23C(O)C1CCC2[C@]12COC3(O)C(O)C1C(C)(C)CC[C@H]2O (stereo not given in full) | inactive |
| CC(C)(CSc1nncn1/N=C/c1ccco1)NS(=O)(=O)c1ccc(Cl)cc1 | inactive |
| Cn1c(=S)c2[nH]c(SCCCc3ccccc3)nc2n(C)c1=O | 0.0837% [at 11.5 µM] (inactive) |

Give the measured activity change, negative = inhibition of COc1ccc(NS(=O)(=O)c2ccc(NC(=O)C(C)(C(F)(F)F)C(F)(F)F)cc2)nn1 . inactive
